B1: HDV Ribozyme (parent)
chain: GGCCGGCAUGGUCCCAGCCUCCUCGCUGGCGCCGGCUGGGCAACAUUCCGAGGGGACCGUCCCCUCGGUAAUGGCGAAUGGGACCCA

Variants of: B1
method: self-cleavage, relative activity (ratio to wild type); higher = more cleavage; co-transcriptional
test-readout: self-cleavage
Format: numeric value only, no unit, no commentary.

Solved cases (10 shown):
[[record]]
ordered_residues = "GGCCGGCAUGGUCCCACCCUCCUCGCUGUCGCCGGCUGGGCAACAUUCCGAGGGGACCGUCCCCUCGGUAAUGGCGAAUGGGACCCA [G17C G29U]"
result_number = 0

[[record]]
ordered_residues = "GGCCGGCAUGGUCCCAGCCUCCUCGCUGGCGCCGGCUGCGCAACAUUCCGAGGGGACCGUCCCAUCGGUAAUGGCGAAUGGGACCCA [G39C C64A]"
result_number = 0.0369

[[record]]
ordered_residues = "GGACGGCAUGGUCCCAGCCUCCUCGCUGGCGCCGGCUGGGCAACAUUCCGAGGGGACCGUCCCCUCGGUAAUGGCGAAUGUGACCCA [C3A G81U]"
result_number = 0.107

[[record]]
ordered_residues = "GGCCGGCAUGGUCCCAGCCUCCUCGCUGGCGCCGGCUGGGCAACAUUCCGAGGGGACCGUCCCCUCGAUAAUGGCGAAUGGGACGCA [G68A C85G]"
result_number = 0.774

[[record]]
ordered_residues = "GGCCGGCAUGGUCCCAGCCUCCUCGCUGGCGACGGCUGGGCAACAUUCCGAGGGGACCGUCCCCUCGGUAAUGGCGGAUGGGACCCA [C32A A77G]"
result_number = 0.0426

[[record]]
ordered_residues = "GGCCGGCAUGGUCCCAGCCUCCUCGCUGGCGACGGCUGGACAACAUUCCGAGGGGACCGUCCCCUCGGUAAUGGCGAAUGGGACCCA [C32A G40A]"
result_number = 0.242

[[record]]
ordered_residues = "GGCCGGCAUGGUCCCAGCCGCCUCGCUGGCGCCGGCUGGGCAACAUUCCGAGGGGACCGUCCCCUCGGUAAUGGCGAAUGGGGCCCA [U20G A83G]"
result_number = 0.16

[[record]]
ordered_residues = "GGCCGGCAUGGUCCCAGCCUCCUCGCUGGCGCCGGCUGGGCAACAUUCCGAGGGGGCCGUCCCGUCGGUAAUGGCGAAUGGGACCCA [A56G C64G]"
result_number = 0.791

[[record]]
ordered_residues = "GGCCGGCAUGGUCCCAGCCUCCUCGCUGACGCCGGCUGGGCAACAUUCCGAGGGGACCGUCCCCUCGGUAAUGGCGAAUGGGACCCC [G29A A87C]"
result_number = 0.0602

[[record]]
ordered_residues = "GGCCGGCAUGGUCCCAGCCUCCUUGCUGGCGCCGGCUGGGCAACAUCCCGAGGGGACCGUCCCCUCGGUAAUGGCGAAUGGGACCCA [C24U U47C]"
result_number = 0.739


Recorded self-cleavage of GGCCGGCAUGGUACCAGCCUCCUCGCUGGCGCCGGCUGGGCAACAUUCCGAGGGGACCGUCCCCUCGGUACUGGCGAAUGGGACCCA [C13A A71C] , please.
0.135

Name the recorded self-cleavage for GGCCGGCAUGCUCCCAGCCUCCUCGCUGGCGCCGGCUGGGCAACAUUCCGAGGGGACCGUCGCCUCGGUAAUGGCGAAUGGGACCCA [G11C C62G] .
0.214

Any idea what its self-cleavage is? The variant is UGCCGGCAUGGUCCCAGCCUCCUCGCUGGCGCCGGCUGGGCAACAUUCCGAGGGGACCGUCCCCUCGGUAAUGGCGAAUGGGAUCCA [G1U C84U]
0.389

Fill blank: measured self-cleavage of the variant GGCCGCCAUGGUCCCAGCCUCCUCGCUGGCGCCGGCUGGGCAACAUUCCGAGGGGACCGUCCCCUCGGUAAUGGCGAAUGGGGCCCA [G6C A83G] is ____.
0.189

# query: self-cleavage of entry GGCCGGCAUGCUCCCAGCCUCCUCGCUGGCGCCGGCUGGGCAACAUUCCGAGGGGACCGUCCCCUCGGGAAUGGCGAAUGGGACCCA [G11C U69G]
0.516

So what's the measured self-cleavage for this one? GGCCGGCAUGGUCCCAGCCUCCUCGCUGGGGCCGGCUGGGCAACAUUCCGAGGGGACCGUCCCCUCGGUGAUGGCGAAUGGGACCCA [C30G A70G]
0.0739

Fill blank: measured self-cleavage of the variant GGCCGGCAUGGUCCCAGCCUCCUCGCUGGCGCCGGCUGGGCAACAUACCGAGUGGACCGUCCCCUCGGUAAUGGCGAAUGGGACCCA [U47A G53U] is ____.
0.755

Return reported self-cleavage; argument: GGCCGGCAUGGUUCCAGCCUCCUCGCUGGCGCCGGCUGGGCAACAUUCCGAGGGGACCGUUCCCUCGGUAAUGGCGAAUGGGACCCA [C13U C61U]
0.77

Given GGCCGGCAUGGUCCCAGCCUGCUCGCUGGCGCCGGCUGGGCAACAUUCCGAGGGGACCGUCCCCUCGGUAAUGGCGAAUGGCACCCA [C21G G82C] , state its recorded self-cleavage.
0.0437

State the recorded self-cleavage for this entry: GGCCGGCAUGGUCCCAGCCUCCUCGCUGGCGCCGGGUAGGCAACAUUCCGAGGGGACCGUCCCCUCGGUAAUGGCGAAUGGGACCCA [C36G G38A]
0.143

Can you share its self-cleavage? I mean this variant: GGCGGGCAUGGUCCCAGCCUCCUCGCUGGCGCCGGCUGGGCAACAUUCCGAGGGGACCGUCCCCUCGGUAAUGGCGAAUGGGCCCCA [C4G A83C]
0.102

# query: self-cleavage of entry GGCCGGCAUGGUCCCAGCCUCCUCGCUGGCGCAGGCUGGGCAACAUUCCGAGGGGACCGUCCCCUCCGUAAUGGCGAAUGGGACCCA [C33A G67C]
0.277

Entry GGCCGGCGUGGUCCCAGCCACCUCGCUGGCGCCGGCUGGGCAACAUUCCGAGGGGACCGUCCCCUCGGUAAUGGCGAAUGGGACCCA [A8G U20A] has what self-cleavage?
0.151

For the variant GGGCGGCAUGGUCCCAGCCUCCUCGCUGGCGCCGGCUGGGCAACAUUCGGAGGGGACCGUCCCCUCGGUAAUGGCGAAUGGGACCCA [C3G C49G] , what self-cleavage is on record?
0.523

Look up self-cleavage for this variant: GGCCGGCAUGGUCCCAGCCUCCUCGCUGGCGCCGGCUGGGCAACAUUCCGAGGGCACCGUCCCCUCGGUAAUGGCGAAUUGGACCCA [G55C G80U]
0.216

Reported self-cleavage for GGCCGGCAUGGUCCGAGCCUCCUCGCUGGCGCCGGCUGGGCAACAUUCCGAGGGGACCGUCCCCUCGGUAAUGUCGAAUGGGACCCA [C15G G74U] : what is it?
0.0875

Looking for the measured self-cleavage of GGCCGGCAUGGUCCCAGCCUCCUCGCUGGCGCCGGCUGGGCAACAUUCCGCGGGGACCGUCCCCUCGGUAAUGGCGAAUGGGACCCG [A51C A87G] , can you help?
0.862

For GGCCGGCAUGGUCCCAGCCUCCUCGCUGGCGCAGGCUGGGCAACAUUUCGAGGGGACCGUCCCCUCGGUAAUGGCGAAUGGGACCCA [C33A C48U] , what is its reported self-cleavage?
0.163

Entry under review: GGCCGGCAUGGUCCCAGCCUCCUCGCUGGCGCCGGCUGGGCAACAUUCCGAGGGGACCGUCUCCUCGGUUAUGGCGAAUGGGACCCA [C62U A70U] . Reported self-cleavage?
0.831

What value of self-cleavage has been recorded for this entry: GGCCGGCAUGGUCCCAGCCUCCUCGCUGGCGCCGGCUGGGCAACAUUCCAAGGGGACCGUCCCCUCGGUAAUGGCGUAUGGGACCCA [G50A A77U]
0.721

Using the record for GGCCGGCAUGGUCCCAGCCUCCUCUCGGGCGCCGGCUGGGCAACAUUCCGAGGGGACCGUCCCCUCGGUAAUGGCGAAUGGGACCCA [G25U U27G] , report its self-cleavage.
0.185

For the variant shown here, GGCCGGCAUGGUCCCAGCCUCCUCGCUGGCGCCGGCUGGGCAACAUUCCGAGGGGUCCGUACCCUCGGUAAUGGCGAAUGGGACCCA [A56U C61A] , give the reported self-cleavage.
0.943

The reported measurements were obtained from the RNAGym collection of RNA variant scans (doi:10.7554/elife.80360).
